System: Plasmodium berghei
Assay: Screen against P. berghei liver stage (PbLuc), transformed with Luciferase, at 10uM
Format: functional, HepG2
Settings: tested at 10 uM
Out of some 69,000 compounds screened, about 8,600 (12%) showed an effect of 50% or more. This is one part of a sample in which strong results are shown more often than they occur.
Items are presented alongside their recorded INHIBITION.

compound: CCc1nc2n(n1)CC(NCc1nc(Cc3ccccc3)no1)CC2 (stereo unspecified)
target.entity: Plasmodium berghei
units.symbol: %
INHIBITION: 19.6
//
compound: CN(Cc1nnc2ccccn12)C(=O)CC1CCCCC1
target.entity: Plasmodium berghei
units.symbol: %
INHIBITION: 10.7
//
compound: CCCc1nc(N(C)Cc2ccco2)c2c(n1)c(C)nn2CC
target.entity: Plasmodium berghei
units.symbol: %
INHIBITION: -6.42
//
compound: CCCc1n[nH]c(C2CN(C(=O)c3cccc4cn[nH]c34)CCO2)n1 (stereo unspecified)
target.entity: Plasmodium berghei
units.symbol: %
INHIBITION: -11.9
//
compound: O=C(Cc1ccc2c(c1)OCC2)Nc1nc(C(F)(F)F)n[nH]1
target.entity: Plasmodium berghei
units.symbol: %
INHIBITION: 28.6
//
compound: C[C@H]1C[C@H]2CN(S(=O)(=O)c3ccc(F)cc3)CC[C@@H]2O1
target.entity: Plasmodium berghei
units.symbol: %
INHIBITION: -1.12
//
compound: Cc1nn(C)c(C)c1C1CCCN1Cc1nc(-c2cccs2)no1 (stereo unspecified)
target.entity: Plasmodium berghei
units.symbol: %
INHIBITION: -2.53
//
compound: Cc1ccc(C)c(C(O)CN(C)Cc2nnc3ccccn23)c1 (stereo unspecified)
target.entity: Plasmodium berghei
units.symbol: %
INHIBITION: 23.3
//
compound: CCn1nc(C)c2ncnc(N(C)Cc3ccco3)c21
target.entity: Plasmodium berghei
units.symbol: %
INHIBITION: 52.4
//
compound: CC(O)(CNc1ccc(Cl)c(C#N)n1)c1ccccc1 (stereo unspecified)
target.entity: Plasmodium berghei
units.symbol: %
INHIBITION: -25
//
compound: N#Cc1ccccc1C(=O)Nc1cccc(CN2CCC(CO)CC2)c1
target.entity: Plasmodium berghei
units.symbol: %
INHIBITION: -43.1

====

Items are presented alongside their recorded INHIBITION.
System: Plasmodium berghei
Assay: Screen against P. berghei liver stage (PbLuc), transformed with Luciferase, at 10uM
Assay type: functional, HepG2
Conditions: tested at 10 uM
The campaign covered roughly 69,000 compounds. About 8,600 (12%) showed an effect of 50% or more. The sample as a whole holds a higher share of strong results than the screen did.

molecule: COCCN(Cc1cccnc1)S(=O)(=O)c1cccc(F)c1F
INHIBITION [%]: 29.4
//
molecule: COCCN(Cc1cccnc1)S(=O)(=O)c1ccc(F)cc1C
INHIBITION [%]: 26
//
molecule: Cc1noc([C@H]2COC[C@H]3CN(C(=O)Cc4cccc(F)c4)C[C@H]32)n1
INHIBITION [%]: 38.5
//
molecule: CC(C)N(Cc1ccccn1)C(=O)CCC(=O)c1ccc(F)cc1F
INHIBITION [%]: 36.9
//
molecule: CCN(Cc1cccc(-c2ccncc2)c1)S(C)(=O)=O
INHIBITION [%]: 29.6
//
molecule: NC(=O)C1CCN(C(=O)Cc2cnc(-c3c(Cl)cccc3Cl)s2)CC1
INHIBITION [%]: 37.9
//
molecule: Cc1ccc(Br)c(S(=O)(=O)NCc2ccnn2C)c1
INHIBITION [%]: -24.4
//
molecule: CN1CCN(C=C2N=C(c3cc(-c4ccccc4F)n[nH]3)ON2)CC1
INHIBITION [%]: 49.4
//
molecule: CCN(C)S(=O)(=O)N(CC)Cc1cccc(-c2ccncc2)c1
INHIBITION [%]: 58.3
//
molecule: Cc1cn[nH]c1C1COCCN1S(=O)(=O)c1cn[nH]c1 (centres undefined)
INHIBITION [%]: 23.2
//
molecule: COc1ccccc1-c1cc(C(=O)Nc2nc[nH]n2)[nH]n1
INHIBITION [%]: -36
//
molecule: COCCN(Cc1ccoc1)S(=O)(=O)c1ccc(F)c(C)c1
INHIBITION [%]: 0.348
//
molecule: CC1(C)CNC(=O)CN(C(=O)Cc2ccccc2)C1
INHIBITION [%]: -1.99
//
molecule: COCCN(Cc1cccnc1)S(=O)(=O)c1cc(C)ccc1F
INHIBITION [%]: 59.4
//
molecule: CNS(=O)(=O)c1ccc(CNC(=O)NCC2CCCO2)cc1 (centres undefined)
INHIBITION [%]: 0.932
//
molecule: CNS(=O)(=O)c1ccc(CNC(=O)C2CCCN(C)C2)cc1 (centres undefined)
INHIBITION [%]: -34.8
//
molecule: COc1ccc(CC(=O)N2CC(=O)NCC(C)(C)C2)cc1
INHIBITION [%]: 60.1
//
molecule: COCCn1cc(NC(=O)NCC(c2cccc(F)c2)N(C)C)cn1 (centres undefined)
INHIBITION [%]: 49.7
//
molecule: CN(CCc1ccccc1)Cc1cnc(C2(C)CCCCO2)nc1 (centres undefined)
INHIBITION [%]: 10.871
//
molecule: CCCN(CCC)S(=O)(=O)N(C)Cc1ccncc1
INHIBITION [%]: 53.4
//
molecule: O=C1CN(CC2CC2)Cc2nc(NCCc3ccccn3)sc21
INHIBITION [%]: 23.4
//
molecule: CC(=O)N1CCC(Cc2cnc(-c3c(C)n[nH]c3C)cn2)CC1
INHIBITION [%]: 1.5
//
molecule: CC1(C)CNC(=O)CN(C(=O)COc2ccccc2)C1
INHIBITION [%]: 55.5
//
molecule: CCCN(Cc1ccccc1O)S(=O)(=O)N(C)CC
INHIBITION [%]: -58
